- System: E. coli 250SJ1 (Tem7)
- assay.details: MIC, micro-dilution in liquid medium, β-lactamine with product at 5 mg/l
- Format: cell-based
- condition.description: compound at 5 mg/l; Trial 5, 250SJ1 E. coli Tem7; 24 hours at 37° C.
measure.name: MIC of Cefotaxime in combination with the compound

compound: O=C(NCCc1ccccn1)[C@H]1CC[C@@H]2CN1C(=O)N2OS(=O)(=O)[O-].[Na+] (relative stereo) [Example 38]
experimental.result: <=0.04 μg/ml
--
compound: O=C(NCc1ccccn1)[C@H]1CC[C@@H]2CN1C(=O)N2OS(=O)(=O)[O-].[Na+] (relative stereo) [Example 35]
experimental.result: <=0.04 μg/ml
--
compound: O=C(NCCc1cccnc1)[C@H]1CC[C@@H]2CN1C(=O)N2OS(=O)(=O)[O-].[Na+] (relative stereo) [Example 36]
experimental.result: <=0.04 μg/ml
